pest or weed control at 1.5 mg/g listing for selected compounds.
System: Heterodera glycines (SCN)
Experiment: Seed treatment test of soybean cyst nematode on soybean
Format: in vivo
Conditions: Heterodera glycines, 672 h, 1.5 mg ai/gram seed; test b; read-out: percent cyst reduction relative to control blank treatment
Numeric answer plus unit only.

Fc1cc(F)c(-c2noc(-c3cccs3)n2)c(F)c1 | 77%
Fc1ccc(-c2noc(-c3cccs3)n2)cc1 | 83%
Fc1ccc(-c2noc(-c3cccs3)n2)c(F)c1 | 80%

Exam item: Data request, read-out pest or weed control at 1.5 mg/g, for Fc1cc(Cl)ccc1-c1nsc(-c2ccco2)n1
Marked response: 77%

====

EC50 listing for selected compounds.
System: C. elegans
Assay: Three day C. elegans well assay
Format: in vivo
Conditions: Caenorhabditis elegans, 48 h; L4 larvae, two days of exposure; read-out: EC50 L4 2D
Lab book: enter the figure in µg/mL, no units written.

Cc1cc(F)ccc1-c1noc(-c2cccs2)n1 [compound 5845] | 25
Fc1ccc(-c2noc(-c3cccs3)n2)c(F)c1 [compound 5847] | 1.6
Fc1cc(Br)ccc1-c1noc(-c2cccs2)n1 [compound 5848] | 1.6
Cc1cc(Cl)ccc1-c1noc(-c2ccco2)n1 [compound 5823] | 0.4

Exam item: Data request, read-out EC50, for Cc1cc(Cl)ccc1-c1noc(-c2cccs2)n1 [compound 5822]
Marked response: 1.6
